Field: cell viability of combination. Provide a value for each of the molecules that follow.
Test system: HCI01 (cells of a triple-negative basal-like breast cancer xenograft)
Assay: cell viability of combination (% of vehicle); higher = less cytotoxic
Settings: 1 µM; 72 h; partner dose: 10 nM
Answers are plain numbers.

Consider the following illustrative entries.
{"Molecule": "CS(=O)(=O)O.Cc1c(O)cccc1C(=O)NC(CSc1ccccc1)C(O)CN1CC2CCCCC2CC1C(=O)NC(C)(C)C (stereo not drawn) [Nelfinavir Mesylate] + CN(C)C/C=C/C(=O)Nc1cc2c(Nc3ccc(F)c(Cl)c3)ncnc2cc1O[C@H]1CCOC1 [Afatinib]", "cell viability of combination": 44.5}
{"Molecule": "CC(C)CC(NC(=O)C(NC(=O)c1cccc(-c2ccccc2)n1)C(C)O)B(O)O (stereo not drawn) + CN(C)C/C=C/C(=O)Nc1cc2c(Nc3ccc(F)c(Cl)c3)ncnc2cc1O[C@H]1CCOC1 [Afatinib]", "cell viability of combination": 34.1}
{"Molecule": "CCOc1nc2cccc(C(=O)OC(C)OC(=O)OC3CCCCC3)c2n1Cc1ccc(-c2ccccc2-c2nn[nH]n2)cc1 (stereo not drawn) [Candesartan Cilexetil] + CN(C)C/C=C/C(=O)Nc1cc2c(Nc3ccc(F)c(Cl)c3)ncnc2cc1O[C@H]1CCOC1 [Afatinib]", "cell viability of combination": 55.5}
{"Molecule": "CN(C)CC=CC(=O)Nc1cc2c(Nc3ccc(F)c(Cl)c3)ncnc2cc1OC1CCOC1.O=C(O)C=CC(=O)O.O=C(O)C=CC(=O)O (stereo not drawn) [Afatinib dimaleate] + CN(C)C/C=C/C(=O)Nc1cc2c(Nc3ccc(F)c(Cl)c3)ncnc2cc1O[C@H]1CCOC1 [Afatinib]", "cell viability of combination": 50.8}
{"Molecule": "CNC(=O)c1cc(Oc2ccc(NC(=O)Nc3ccc(Cl)c(C(F)(F)F)c3)c(F)c2)ccn1.Cl [Regorafenib hydrochloride] + CN(C)C/C=C/C(=O)Nc1cc2c(Nc3ccc(F)c(Cl)c3)ncnc2cc1O[C@H]1CCOC1 [Afatinib]", "cell viability of combination": 52}
{"Molecule": "Nc1ncn(C2OC(CO)C(O)C2O)c(=O)n1 (stereo not drawn) [5-Azacytidine] + CN(C)C/C=C/C(=O)Nc1cc2c(Nc3ccc(F)c(Cl)c3)ncnc2cc1O[C@H]1CCOC1 [Afatinib]", "cell viability of combination": 53.5}

Count: 8. Required value per item: cell viability of combination.
1. Cc1cc(-n2c(=O)[nH]c(=O)n(C)c2=O)ccc1Oc1ccc(SC(F)(F)F)cc1 [Toltrazuril] + CN(C)C/C=C/C(=O)Nc1cc2c(Nc3ccc(F)c(Cl)c3)ncnc2cc1O[C@H]1CCOC1 [Afatinib]
2. CC(CCC(=O)O)C1CCC2C3CCC4CC(O)CCC4(C)C3CCC12C (stereo not drawn) [Lithocholic Acid] + CN(C)C/C=C/C(=O)Nc1cc2c(Nc3ccc(F)c(Cl)c3)ncnc2cc1O[C@H]1CCOC1 [Afatinib]
3. CCCCc1oc2ccccc2c1C(=O)c1cc(I)c(OCCN(CC)CC)c(I)c1.Cl [Amiodarone HCl] + CN(C)C/C=C/C(=O)Nc1cc2c(Nc3ccc(F)c(Cl)c3)ncnc2cc1O[C@H]1CCOC1 [Afatinib]
4. Cc1nc(NC(=O)N2CCCC2C(N)=O)sc1-c1ccnc(C(C)(C)C(F)(F)F)c1 (stereo not drawn) + CN(C)C/C=C/C(=O)Nc1cc2c(Nc3ccc(F)c(Cl)c3)ncnc2cc1O[C@H]1CCOC1 [Afatinib]
5. Br.Cc1ccc(Sc2ccccc2N2CCNCC2)c(C)c1 + CN(C)C/C=C/C(=O)Nc1cc2c(Nc3ccc(F)c(Cl)c3)ncnc2cc1O[C@H]1CCOC1 [Afatinib]
6. Oc1c(Cl)cc(Cl)c2cccnc12 [Chloroxine] + CN(C)C/C=C/C(=O)Nc1cc2c(Nc3ccc(F)c(Cl)c3)ncnc2cc1O[C@H]1CCOC1 [Afatinib]
7. Clc1ccc(C(Cn2ccnc2)OCc2ccc(Sc3ccccc3)cc2)c(Cl)c1.O=[N+]([O-])O (stereo not drawn) [Fenticonazole Nitrate] + CN(C)C/C=C/C(=O)Nc1cc2c(Nc3ccc(F)c(Cl)c3)ncnc2cc1O[C@H]1CCOC1 [Afatinib]
8. CCCCCCCCCCCCCCCCOP(=O)([O-])OCC[N+](C)(C)C [Miltefosine] + CN(C)C/C=C/C(=O)Nc1cc2c(Nc3ccc(F)c(Cl)c3)ncnc2cc1O[C@H]1CCOC1 [Afatinib]

Data returned:
[58.1, 45.1, 68.8, 46.9, 49.7, 56.1, 49.2, 56.7]
